System Under Test: UniProtKB A0A024AXB9
Test Description: Functional biochemical assay to identify treatments for viral infectious disease that targets Zika NS2B-NS3 protease. Utilizing a direct enzyme activity measurement method, reading the fluorescence intensity is used to characterize the relative potency of inhibitors as IC50.
Set-up: species or system PRVABC59
pIC50: −log10 of the molar value.
# reported pIC50; entries follow

Below are worked cases with known answers.
O=C(Nc1ccc2c(c1)CNC2)c1nc2ccccc2s1 :: < 4.60
CNC(=O)C[C@H]1CC[C@@H](NC(=O)c2cccc3c2CC(=O)N3)CC1 :: < 4.60
N#CCc1cccc(NC(=O)c2cc(Cl)cc(NC(=O)OCc3ccccc3)c2)c1 :: < 4.00
CNC(=O)[C@H](Nc1ccccn1)c1cc(Cl)cc(CN)c1 :: < 4.00
CC(=O)N[C@H](C(=O)N[C@H]1C(=O)O[C@H]1C)c1ccc(OCc2ccccc2)cc1 :: < 4.00
OC[C@H](Cc1cccnc1)NCc1c[nH]c2ccccc12 :: < 4.00
COC(=O)[C@H](C)n1cc2c(C(=O)Nc3ccc4c(c3)CNC4)cc(Cl)cc2n1 :: 6.70
CCOC(=O)N1CCC[C@H]1c1cccc(-c2ccc3[nH]c(C(=O)O)cc3c2)c1 :: < 4.00
NCc1ccc(Oc2ccc(S(=O)(=O)Nc3ccc(Cl)cc3C(=O)O)cc2)cc1 :: < 4.00
C[C@H]1NCc2ccc(NC(=O)c3cc(Cl)cc4[nH]ncc34)cc21 :: 5.82

QUERY: In one line, give reported pIC50 of the entry `COc1ccc(S(=O)(=O)n2nc(OC(=O)c3cccc(-c4ccccc4Cl)c3)cc2N)cc1` .
RESULT: 6.74

QUERY: In one line, give reported pIC50 of the entry `Cn1nc(C2CC2)c2c(C(=O)Nc3cccc(CN)c3)cc(C3CC3)nc21` .
RESULT: < 4.00

QUERY: In one line, give reported pIC50 of the entry `Cn1ccnc1S(=O)(=O)N[C@@H](C(=O)Nc1cccc(CN)c1)c1ccc(OCc2ccccc2)cc1` .
RESULT: < 4.00

QUERY: In one line, give reported pIC50 of the entry `CC1(C)CNC[C@H](C(=O)Nc2cccc(CN)c2)C1` .
RESULT: < 4.00

QUERY: In one line, give reported pIC50 of the entry `O=C(Nc1ccc2c(c1)CNC2)[C@H]1CCc2ccccc21` .
RESULT: < 4.00

---

# reported IC50; entries follow
System Under Test: Nonstructural protein 3 (Zika virus, UniProt A0A024AXB9)
Sequence (A0A024AXB9 whole entry): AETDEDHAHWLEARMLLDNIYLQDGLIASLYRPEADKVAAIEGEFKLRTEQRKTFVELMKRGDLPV
Test Description: Functional biochemical assay to identify treatments for viral infectious disease that targets Zika NS2B-NS3 protease. Utilizing a direct enzyme activity measurement method, reading the fluorescence intensity is used to characterize the relative potency of inhibitors as IC50.
Set-up: species or system PRVABC59

Below are worked cases with known answers.
O=C(Nc1cc(Cl)cc(C(=O)NCC[C@H]2C[C@@H]2C(=O)O)c1)OCc1ccccc1 :: > 99.5 µM
O=C(Nc1ccc2c(c1)CNC2)c1cc(Br)cc2cccnc12 :: 13.4 µM
c1ccc2c(Cc3ccc(-c4nnn[nH]4)cc3)c[nH]c2c1 :: > 99.5 µM
CC(C)[C@H](NC(=O)c1cc(Cl)cc(NC(=O)OCc2ccccc2)c1)c1nn[nH]n1 :: > 99.5 µM
CC(C)c1nc2c(C(=O)Nc3ccc4c(c3)CNC4)cc(Br)cc2[nH]1 :: 0.316 µM

QUERY: In one line, give reported IC50 of the entry `Cn1cc(Nc2ccc(S(=O)(=O)Nc3ccc(Cl)cc3C(=O)O)cn2)cn1` .
RESULT: > 99.5 µM
